ATTRIBUTE MEASURED: melting point

Nc1nc(NCC(O)CO)c2ncn(C3C=CC(CO)C3)c2n1 (stereo not drawn)
119 to 121 °C
CCC1c2cccn2-c2ccc(C(F)(F)F)cc2N1S(=O)(=O)c1ccc(O)cc1 (stereo not drawn)
181 to 183 °C

Consider now this further compound.
// melting point lookup, key: `CCCC(=O)c1cc(C(=O)C(=O)OC(=O)C(=O)c2cc(C(=O)CCC)c(C)cc2NCC)c(NCC)cc1C`
141 to 143 °C

====

Item-by-item account of melting point

Use the examples below as a reference point.
COC=C1C(=O)NC(=O)c2ccc(OC)cc21
245 to 247 °C
CN=C1SCN(C(C)(C)C)C(=O)N1C
51 to 52 °C
CN(Cc1cccnc1)C(=N)NC#N
141 to 143 °C
Cc1cc2nc3ccc(C(=O)O)cn3c(=O)c2s1
338 to 340 °C
CCOC(=O)N(c1ccccc1)c1cc(Cl)ccc1N=NC(NC(=O)CCl)(C(=O)OCC)C(=O)OCC
105 to 110 °C
CN(C)Cc1cccc(OCCCNc2nc3ccccc3s2)c1
154 to 155 °C
Cc1cc(F)ccc1-c1nc(NC2CCCCC2)nc2c1ccc(=O)n2-c1c(F)cccc1F
218 to 219 °C
CCN(CC)C(=O)NC1C=C2c3cccc4[nH]c(Br)c(c34)CC2N(C)C1 (stereo unspecified)
204 to 208 °C

// melting point lookup, key: Cn1nc(-c2c(F)cccc2Cl)nc1C(O)c1ccc(Cl)cc1 (stereo unspecified)
141 to 143 °C

// melting point lookup, key: `CC(C)Cn1c(CO)c(-c2ccccc2F)c2cc(OCc3ccccc3)ccc2c1=O`
191 to 192 °C

====

ATTRIBUTE MEASURED: melting point

CC(C)c1ccc(C2c3cc(NC(=O)CC(C)(C)C)ccc3OC2(C)C)cc1 (stereo not given)
126 to 127 °C
COc1ccc(C(=O)Nc2ccc(Cl)c(Cl)c2)cc1NCc1cccnc1
145 to 147 °C

// melting point lookup, key: COc1ccc2c(c1)CC(=O)c1cc(C(C)C(N)=O)ccc1S2 (stereo not given)
186 to 188 °C

// melting point lookup, key: `Cc1ccccc1C(=O)N[C@@H](CC(C)C)C(=O)N[C@@H](C(C)C)[C@@H](O)c1c(-c2ccccc2)c1=O`
101 to 105 °C

// melting point lookup, key: CC(C=CC=C(C)C=CC1C(C)=CC(=O)CC1(C)C)=CC=CC=C(C)C=CC=C(C)C=CC1C(C)=CC(=O)CC1(C)C (stereo not given)
185 to 187 °C

// melting point lookup, key: `CC(C)(COC(=O)c1cc(Cl)c(O)c(Cl)c1)COC(=O)c1cc(Cl)c(O)c(Cl)c1`
180 to 181 °C

// melting point lookup, key: CCC(C)c1ccc(-n2c(-c3cc(C)c(OCCO)c(C)c3)nc3ccccc3c2=O)cc1 (stereo not given)
152 to 153 °C

// melting point lookup, key: COC(=O)C1CC=C(c2c(-c3ccccc3)[nH]c3ccccc23)CC1 (stereo not given)
175 to 177 °C

// melting point lookup, key: CC(C(=O)O)c1ccc2oc(-c3ccc(Cl)cc3)nc2c1 (stereo not given)
190 °C

// melting point lookup, key: Cc1ccc(C2(c3ccccc3)OCc3c2cnc(C)c3OCC(=O)O)cc1 (stereo not given)
223 °C
